experiment: Drug repurposing screens with cells derived from glioblastoma tumor samples (AID 1345199); conditions: GBM patient neurospheres viability, ATP luminescence, 48 h; at 46 µM (top of the series); tumour line A; note: % is set by controls: 0 for no effect and ±100 for the full control effect
Results filed as inconclusive are left out.
Listed below: activity, negative = cell killing values for each entry.
The response must be a number in % with no trailing unit.

// solved cases for activity, negative = cell killing follow
- Compound: "COc1cc(O)cc(O)c1"
  Quantitative Readout: -38.5
- Compound: "O=C(O)c1ccccc1C(=O)Nc1ccc(S(=O)(=O)Nc2nccs2)cc1"
  Quantitative Readout: -31.1

Ask: Look up activity, negative = cell killing for this compound: Cn1c([N+](=O)[O-])cnc1COC(N)=O
Result: -18.6

Ask: Would you mind telling me what activity, negative = cell killing value was observed for CCCCCOC(=O)Nc1nc(=O)n([C@@H]2O[C@H](C)[C@@H](O)[C@H]2O)cc1F ?
Result: -16.9

Ask: Entry under review: CCCCCCCC(=O)OCC(O)CO (configuration not stated) . Reported activity, negative = cell killing?
Result: -23.4

Ask: I would be grateful if you could share the reported activity, negative = cell killing for CC(=O)Nc1ccc(C(=O)O)cc1 .
Result: -33.2

Ask: Reported activity, negative = cell killing for CC1CCc2cc(F)cc3c(=O)c(C(=O)O)cn1c23 (configuration not stated) : what is it?
Result: -20.5
